For each entry below, report its protein stability index value.
B1: FAM46C (parent)
chain: FDHLQNRLIATKNPEEIRGGGLLK

- Variants of: B1
- TEST_METHOD_NOTES: protein stability index of a GFP-peptide fusion (GPS, HEK-293T) (PSI 1-6); higher = more stable;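 note: lentivirally expressed fusions sorted by FACS into six bins by GFP to DsRed ratio, PSI derived from sequencing read proportions per bin multiplied by bin number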
- REPORTED_CONDITIONS: c terminus: a fixed tail appended
No unit in the answer, please; the number alone is enough.

Ask: What measured protein stability index goes with FDHLQNRLIAAKNPEEIRGGGLLK [T11A] ?
Result: 3.55

Ask: Item: FDHLQNRLIATKNPEEIRGGGLWK [L23W]
Result: 3.2

Ask: Item: LDHLQNRLIATKNPEEIRGGGLLK [F1L]
Result: 4.51

Ask: Item: FDHLQNRLIATKNPEEIMGGGLLK [R18M]
Result: 3.03

Ask: Item: FDHLQNRLIATKNPEEIRFGGLLK [G19F]
Result: 1.73

Ask: Item: FDHLQNRLIATKNPEEIRGGGLTK [L23T]
Result: 4.56

Ask: Item: FDHLQNRLIATKNPEEIVGGGLLK [R18V]
Result: 3.64

Ask: Item: FDHLQNRLIATKNPEEIPGGGLLK [R18P]
Result: 4.26

Ask: Item: FDHLQNRLIATGNPEEIRGGGLLK [K12G]
Result: 4

Ask: Item: FDHLQNRLIATKNPEEIRGGGLLN [K24N]
Result: 3.52

Ask: Item: FDHLQVRLIATKNPEEIRGGGLLK [N6V]
Result: 2.55

Ask: Item: FDHLQNRLIATKNPEEIRGGGLVK [L23V]
Result: 4.3

Ask: Item: FDHLQNRLIATKNPEEIRGGGLSK [L23S]
Result: 3.93

Ask: Item: FDHLQNRLIATKNPNEIRGGGLLK [E15N]
Result: 3.95

Ask: Item: FDHLQNRLIATKNPEEIYGGGLLK [R18Y]
Result: 3.58

Ask: Item: FDHLQNRLIVTKNPEEIRGGGLLK [A10V]
Result: 3.38

Ask: Item: FDHLQNRLIATKNPEEIRIGGLLK [G19I]
Result: 3.18

Ask: Item: FDHLQNRLIATKNPEEIRGYGLLK [G20Y]
Result: 2.85

Ask: Item: FFHLQNRLIATKNPEEIRGGGLLK [D2F]
Result: 1.89

Ask: Item: TDHLQNRLIATKNPEEIRGGGLLK [F1T]
Result: 4.28

Ask: Item: FDHLQNRLIATKNPEEIRGGNLLK [G21N]
Result: 4.51

Ask: Item: FDHLQCRLIATKNPEEIRGGGLLK [N6C]
Result: 1.88

Ask: Item: FDHLQNRLIATKKPEEIRGGGLLK [N13K]
Result: 4.03

Ask: Item: KDHLQNRLIATKNPEEIRGGGLLK [F1K]
Result: 4.45

Ask: Item: FDHLQNRLIATNNPEEIRGGGLLK [K12N]
Result: 3.82

Ask: Item: FDHLQNRYIATKNPEEIRGGGLLK [L8Y]
Result: 4.4

Ask: Item: FDHLQNRLIATKNPEEIRGGSLLK [G21S]
Result: 4.06

Ask: Item: FDHLQNRLIATMNPEEIRGGGLLK [K12M]
Result: 3.37

Ask: Item: FDHNQNRLIATKNPEEIRGGGLLK [L4N]
Result: 4.14

Ask: Item: FDHLQNRLIATKNPEEIRGGGKLK [L22K]
Result: 4.46

Ask: Item: FDHLQNRLIATKNPKEIRGGGLLK [E15K]
Result: 3.25

Ask: Item: FDQLQNRLIATKNPEEIRGGGLLK [H3Q]
Result: 3.51

Ask: Item: FDHLQNRLIATKNPEEIRGGKLLK [G21K]
Result: 4.26

Ask: Item: FDHLQNRLIANKNPEEIRGGGLLK [T11N]
Result: 4.01

Ask: Item: FDHLQNRLIATKNPEEIRGGGLLQ [K24Q]
Result: 3.27

Ask: Item: FDHLQNRLIATKNPEEIRGGILLK [G21I]
Result: 2.92

Ask: Item: FDMLQNRLIATKNPEEIRGGGLLK [H3M]
Result: 3.71

Ask: Item: FDHLQNRLIATKNPEEIRGGGILK [L22I]
Result: 4.01

Ask: Item: FDHLQNRLIALKNPEEIRGGGLLK [T11L]
Result: 4.29

Ask: Item: FDHLQNRLIATKNPEEIRKGGLLK [G19K]
Result: 4.26

Ask: Item: FAHLQNRLIATKNPEEIRGGGLLK [D2A]
Result: 2.78

Ask: Item: FDILQNRLIATKNPEEIRGGGLLK [H3I]
Result: 3.59

Ask: Item: FDHLQNRLCATKNPEEIRGGGLLK [I9C]
Result: 4.43

Ask: Item: FDHLQNRLIASKNPEEIRGGGLLK [T11S]
Result: 3.56

Ask: Item: FDHLQNRLIATYNPEEIRGGGLLK [K12Y]
Result: 3.24

Ask: Item: FDHLQNRLIATKNPEEIWGGGLLK [R18W]
Result: 2.58
